- Assay Name: gradient 5% acetonitrile 3 min, to 50% in 2 min, to 85% in 15 min, held 3 min, 100 µL/min
- Stated Conditions: column: Zorbax Extend-C18 2.1 x 50 mm; eluents: water / acetonitrile, 0.1% formic acid
Experimental Readout: RP-LC retention time (s)

Some compounds with recorded RP-LC retention time:
CCOc1ccccc1C(=O)N1CCN(c2cc(-c3cccs3)[nH]n2)CC1: 781
COc1ccc(-c2noc(C3CCCN3C(=O)c3ccc(NC(C)=O)cc3)n2)cc1 (centres undefined): 752
CCOC(=O)c1c(C)n(Cc2ccco2)c2ccc(O)cc12: 854
COc1ccc(N2CCN(c3nc(C(=O)NC4CC4)cs3)CC2)cc1: 832
Cc1sc(-c2nc(C(C)C)cs2)cc1S(=O)(=O)N1CCN(c2ccccn2)CC1: 908
CCCc1ccc(S(=O)(=O)N2CCC(c3noc(-c4ccc(C)cc4)n3)CC2)cc1: 1370
O=C(O)c1cccc(Nc2c(-c3ccc(N4CCOCC4)cc3)nc3cnccn23)c1: 648

1. COc1ccccc1NC(=O)N1CCN(C2=CC3=NC(C)CN3C=N2)CC1 (centres undefined)
2. CCCn1nnc2cc(-c3noc(C4CC(=O)N(c5cccc(Cl)c5)C4)n3)ccc21 (centres undefined)
Query: Which is greater in RP-LC retention time, the first item 1 or the second item 2 ? Answer format: the label of the selected item.
Reply: 2

---

- Assay Name: gradient 5% acetonitrile 3 min, to 50% in 2 min, to 85% in 15 min, held 3 min, 100 µL/min
- Stated Conditions: column: Zorbax Extend-C18 2.1 x 50 mm; eluents: water / acetonitrile, 0.1% formic acid
Experimental Readout: RP-LC retention time (s)

# annotated cases, reported RP-LC retention time shown
CC(=O)OC1CCN(C(=O)NC(C)C)CC1: 621
Cc1ccc(C)c(NC(=O)c2csc(-c3cn(C)c4ncccc34)n2)c1: 1110

A. O=C(NCc1ccccc1Cl)C(=O)c1c[nH]c2ccccc12
B. O=C(CCc1c[nH]c2ccccc12)N1CCCN(C2CCN(CC3CC3)C2=O)CC1 (stereo not given)
Query: Response body: label of entry with the larger RP-LC retention time; valid values A , B . Reply briefly: the label of your chosen item.
Reply: A
(A: 936 s, B: 570 s)

---

- Assay Name: gradient 5% acetonitrile 3 min, to 50% in 2 min, to 85% in 15 min, held 3 min, 100 µL/min
- Stated Conditions: column: Zorbax Extend-C18 2.1 x 50 mm; eluents: water / acetonitrile, 0.1% formic acid
Experimental Readout: RP-LC retention time (s)

Sample records with RP-LC retention time:
Cc1ccccc1NC(=O)CC1COc2ccccc2NC1=O (centres undefined): 700
COc1ccc(CCN(C)CCc2ccc(OC)c(OC)c2)cc1OC: 668
COC(=O)C1=CN(C2CC2)c2cc(N3CCCC(C)C3)c(F)cc2S1(=O)=O (centres undefined): 1010
CCc1nnc(-c2cc(C)n(CC(=O)Nc3ccc(Cl)cc3F)c2C)o1: 866
Cc1ccccc1CC(=O)NC(C(=O)Nc1nc2ccccc2[nH]1)C(C)C (centres undefined): 730

I. CC(C)NC(=O)c1ccc(OCC2CCCN(C(=O)Cc3ccccc3F)C2)cc1 (centres undefined)
II. COc1ccc(C)cc1NC(=O)c1nc(C2CCC2)oc1C
III. CCN1CCN(CCNC(=O)c2cc3n(n2)CCCN(Cc2ccc(Cl)cc2)C3=O)CC1
Query: Order by RP-LC retention time, ascending. Reply with the labels, ordered as the question asks.
Reply: III, I, II
(III: 610 s, I: 875 s, II: 1290 s)

A. COc1cc(-c2noc(Cc3nnc(-c4cc(F)cc(F)c4)o3)n2)cc(OC)c1OC
B. CCOC(=O)c1c(C)[nH]c(CCC(=O)NCc2cn[nH]c2C)c1C
Query: Higher RP-LC retention time between A and B ? Provide the label of your selected option as the answer.
Reply: A

---

- Assay Name: gradient 5% acetonitrile 3 min, to 50% in 2 min, to 85% in 15 min, held 3 min, 100 µL/min
- Stated Conditions: column: Zorbax Extend-C18 2.1 x 50 mm; eluents: water / acetonitrile, 0.1% formic acid
Experimental Readout: RP-LC retention time (s)

Look over these answered cases.
COc1ccc(Cc2nc(-c3ccc4c(c3)ncn4CCN3CCCCC3)no2)cc1: 626
CCC(C)N(CCNC(=O)Cc1noc2ccc(C)cc12)Cc1ccco1 (stereo not drawn): 682
CCCOc1ccccc1Nc1nc(C(=O)OCC)nc2ccccc12: 1040

I. C=CCn1c(=O)c2ccccc2n(Cc2nc(-c3ccc(F)cc3)no2)c1=O
II. Cc1sc2ccn(CC(C)C)c(=O)c2c1C(=O)NCCN1CCCCCC1
Query: I'm curious, which of these has a smaller RP-LC retention time number: I or II ? Respond using the label that marks the chosen record.
Reply: II
(II: 684 s, I: 1050 s)

1. CC(=O)Oc1ccccc1C1=NN(C(C)=O)C(c2ccccc2Cl)O1 (stereo not drawn)
2. O=S(=O)(Cc1ccc(Cl)cc1)c1ccc(N2CCN(c3ccccn3)CC2)nn1
Query: Hi team, can someone confirm which has the larger RP-LC retention time: 1 or 2 ? Thanks. // output: label of the selected item
Reply: 1
(1: 974 s, 2: 654 s)

---

- Assay Name: gradient 5% acetonitrile 3 min, to 50% in 2 min, to 85% in 15 min, held 3 min, 100 µL/min
- Stated Conditions: column: Zorbax Extend-C18 2.1 x 50 mm; eluents: water / acetonitrile, 0.1% formic acid
Experimental Readout: RP-LC retention time (s)

A. O=C(CN1C(=O)CCC1=O)NCC1(c2ccc(F)cc2)CC1
B. COc1cccc(NC(=O)c2cc(C(C)C)n3nccc3n2)c1
Query: Exercise: compare A and B ; which one has the greater RP-LC retention time? When you have decided, please share the label of that item.
Reply: B
(B: 1070 s, A: 665 s)

P. CCn1nccc1C(=O)NCC1Cn2cccc2C(=O)N1CC(C)C (stereo not given)
Q. CC(C)CCNC(=O)c1ccc(-c2nc3cccnc3n2C2CCCCC2)cc1
Query: Lab note: record which item had the higher RP-LC retention time, P or Q . Field: selected label. Fill in the label of the entry you choose.
Reply: Q
(Q: 1020 s, P: 698 s)

I. O=C(O)c1nnn(-c2cccc(Cl)c2)c1C(F)(F)F
II. Cc1c(Cl)cccc1NC(=O)C1CCCN(c2nc3c(s2)c(C)nn3-c2ccccc2)C1 (stereo not given)
Query: Among I and II , whose measured RP-LC retention time is the smaller figure? Identify your pick by its label.
Reply: I
(I: 806 s, II: 1250 s)

A. Cc1cc(NC(=O)CCn2cnc3ccccc3c2=O)sn1
B. CCn1cc(S(=O)(=O)N2CCC(CCOc3ccccc3F)C2)cn1 (stereo not given)
Query: Given the two records A and B , choose the one whose RP-LC retention time value is lower. Respond with the label that goes with your answer.
Reply: A
(A: 619 s, B: 948 s)

A. CC(C)C(=O)N1CCc2cc(CNS(=O)(=O)Cc3ccccc3)ccc21
B. COC(=O)c1cc2c(=O)n(-c3nc4ccc(Cl)cc4s3)ccc2nc1C
Query: Of A versus B , which is the one with smaller reported RP-LC retention time? Field: selected label. Fill in the label of the entry you choose.
Reply: A
(A: 652 s, B: 1350 s)

a. CN(CC1CCOCC1)C(=O)c1cc(F)cc(F)c1
b. Cc1ccc(S(=O)(=O)NCCC(=O)N2CCCC2c2nc(-c3ccc(Cl)cc3)no2)cc1 (stereo not given)
Query: Please let me know which one, a or b , has a lower measured RP-LC retention time value. Use the label to indicate which entry you chose.
Reply: a

I. Cn1c(=O)c(N2CCC(C(=O)NCCCN3CCCC3=O)CC2)nc2ccccc21
II. CCc1noc(NC(C)=O)c1-c1ccc(C)c(S(=O)(=O)N2CCCc3ccccc32)c1
Query: Please state the entry with greater RP-LC retention time among I and II . Provide the label of your selected option as the answer.
Reply: II
(II: 953 s, I: 645 s)

1. O=C([C@H]1C[C@@H](F)CN1S(=O)(=O)c1ccc(F)c(Cl)c1)N1CCOCC1
2. COc1cccc(-c2nc(C3CCN(S(=O)(=O)c4ccc(C)cc4)CC3)no2)c1
Query: Task for the reader: decide whether 1 or 2 has the larger RP-LC retention time. Respond using the label that marks the chosen record.
Reply: 2
(2: 1150 s, 1: 731 s)

---

- Assay Name: gradient 5% acetonitrile 3 min, to 50% in 2 min, to 85% in 15 min, held 3 min, 100 µL/min
- Stated Conditions: column: Zorbax Extend-C18 2.1 x 50 mm; eluents: water / acetonitrile, 0.1% formic acid
Experimental Readout: RP-LC retention time (s)

Please review the entries below; each comes with its answer.
O=C(Cc1csc(NC(=O)C2CCCC2)n1)Nc1nc(-c2cccnc2)cs1: 600
Cc1ccc(-c2nc(C3CCN(S(=O)(=O)c4c(C)cc(C)cc4C)CC3)no2)cc1: 1420
Fc1ccccc1-c1nnc(CN2CCN(c3ccccn3)CC2)o1: 596
COCCN1CN=C(Nc2nc(C)c3cccc(C)c3n2)NC1: 644

P. O=C(c1ccccc1OCC1CCCN(C2CCCCC2)C1)N1CCCCC1 (stereo unspecified)
Q. CCOc1ccc(-n2ccn3cc(-c4ccc(Br)cc4)nc3c2=O)cc1
Query: Hi there, can you help? I need to know whether P or Q has lower measured RP-LC retention time. Provide the label of your selected option as the answer.
Reply: P
(P: 594 s, Q: 954 s)
